Data origin, for the record: patent US3989845A

# Lookup of reported AI (anesthetic index, LC50/AC50) keyed by entry
Test system: Mice
Assay explanation: Inhalation anesthesia test in mice, 10 minutes in a rotating drum (pinch, corneal and righting reflex): AC50, LC50 and anesthetic index
Type: in vivo
Setup conditions: calculated from LC50 and AC50, 10 min

Example cases with answers are listed next.
Sure, the documented AI (anesthetic index, LC50/AC50) for FC1(F)C(F)(Cl)C1(Cl)Cl (stereo not shown) is > 3

get_value(item= FC(F)(F)C1(F)C(F)(F)C1(Cl)Cl (stereo not shown) , readout=AI (anesthetic index, LC50/AC50)) returns ~ 2

Memo: FC1C(F)(F)C1(Cl)Cl (stereo not shown) , reported AI (anesthetic index, LC50/AC50): 2-3

For record FC1(F)C(F)(Cl)C1(F)Cl (stereo not shown) the listed AI (anesthetic index, LC50/AC50) is ~ 2

Record CC1(F)C(F)(F)C1(Cl)Cl (stereo not shown) . Reported AI (anesthetic index, LC50/AC50): 4-6

More entries:
Reported AI (anesthetic index, LC50/AC50) for `FC1(F)C(Cl)(Cl)C1(Cl)Cl` was ~ 4

For CC1(Cl)CC1(F)Cl (stereo not shown) the compound record lists AI (anesthetic index, LC50/AC50) as > 2
